experimental-system: ACKR3 (Homo sapiens)
Sequence (P25106 whole entry): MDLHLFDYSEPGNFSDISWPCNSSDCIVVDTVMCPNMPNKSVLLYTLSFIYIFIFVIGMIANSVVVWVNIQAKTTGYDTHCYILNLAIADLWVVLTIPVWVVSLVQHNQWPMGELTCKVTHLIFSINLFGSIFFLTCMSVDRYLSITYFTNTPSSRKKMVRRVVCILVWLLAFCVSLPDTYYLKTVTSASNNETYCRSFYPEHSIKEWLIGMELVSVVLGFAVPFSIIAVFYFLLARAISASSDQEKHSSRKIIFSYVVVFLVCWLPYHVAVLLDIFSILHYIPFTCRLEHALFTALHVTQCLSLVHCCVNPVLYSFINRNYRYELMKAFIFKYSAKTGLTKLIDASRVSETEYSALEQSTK
property: IC50 (µM)

[
  {
    "compound": "C/C=C1/CN2CC[C@H]1C(=O)c1[nH]c3ccccc3c1C2 [WW-1]",
    "experimental-system": "ACKR3 (Homo sapiens)",
    "output-unit": "µM",
    "recorded-number": 39.9
  }
]

----------
Recorded measurements of Emax, one per entry
experimental-system: DOR (Homo sapiens)
Sequence (P41143 whole entry): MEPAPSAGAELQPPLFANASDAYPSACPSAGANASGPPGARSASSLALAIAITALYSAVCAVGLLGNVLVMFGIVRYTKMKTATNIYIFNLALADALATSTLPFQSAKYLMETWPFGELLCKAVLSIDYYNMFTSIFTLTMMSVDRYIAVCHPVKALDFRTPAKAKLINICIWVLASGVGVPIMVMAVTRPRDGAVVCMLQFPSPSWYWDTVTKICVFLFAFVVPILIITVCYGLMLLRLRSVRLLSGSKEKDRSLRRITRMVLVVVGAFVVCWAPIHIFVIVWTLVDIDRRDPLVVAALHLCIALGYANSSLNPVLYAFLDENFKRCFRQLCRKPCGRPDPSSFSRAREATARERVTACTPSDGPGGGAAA
measurement-description: DOR calcium mobilization agonist/antagonist screen (CHO-RD-HGA16 cells)
Type: cell-based
Parameters: host or cells: CHO-RD-HGA16
conditions: CHO-RD-HGA16; agonist screen, single concentration; control agonist DPDPE
Description: Compounds were evaluated for kappa (KOR), mu (MOR), and delta (DOR) opioid receptor agonist and antagonist activity in three individual cell lines overexpressing Gαq16 (CHO-RD-HGA16, Molecular Devices) and the human kappa, mu, and delta opioid receptors, respectively. […] After the dye-loading incubation period, pretreatment solution was added to each well (25 μL of 9% DMSO/assay buffer) and, after 15 min, the plate was read with a FlexStation II (Molecular Devices). […]
property: Emax

[
  {
    "smiles-record": "C/C=C1/CN2CC[C@H]1C(=O)c1[nH]c3ccc(OC)cc3c1C2",
    "property": "Emax",
    "result": "2%"
  },
  {
    "smiles-record": "C/C=C1/CNCC[C@H]1C(=O)c1cc2ccccc2[nH]1",
    "property": "Emax",
    "result": "5%"
  },
  {
    "smiles-record": "CCOC(=O)c1[nH]c2ccccc2c1CN1CCC(C(=O)OC)CC1",
    "property": "Emax",
    "result": "0%"
  },
  {
    "smiles-record": "O=C(c1cc2ccccc2[nH]1)C1CCN(Cc2ccccc2)CC1",
    "property": "Emax",
    "result": "0%"
  },
  {
    "smiles-record": "C/C=C1/CN(CC(C)C)CC[C@H]1C(=O)c1cc2ccccc2[nH]1",
    "property": "Emax",
    "result": "4%"
  },
  {
    "smiles-record": "C/C=C1/CN2CC[C@H]1C(=O)c1[nH]c3cc(F)ccc3c1C2",
    "property": "Emax",
    "result": "0%"
  },
  {
    "smiles-record": "C/C=C1/CN(Cc2ccc(OC)cc2)CC[C@H]1C(=O)c1cc2ccccc2[nH]1",
    "property": "Emax",
    "result": "6%"
  },
  {
    "smiles-record": "C/C=C1/CN2CC[C@H]1C(=O)c1[nH]c3ccc(F)cc3c1C2",
    "property": "Emax",
    "result": "1%"
  },
  {
    "smiles-record": "C/C=C1/CN2CC[C@H]1C(=O)c1[nH]c3ccccc3c1C2",
    "property": "Emax",
    "result": "0%"
  },
  {
    "smiles-record": "C/C=C1/CN(CCC)CC[C@H]1C(=O)c1cc2ccccc2[nH]1",
    "property": "Emax",
    "result": "5%"
  }
]
